assay: chemical genetic growth profiling, strain panel (AID 1159580);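 further: tested at 20 µM; growth read once vehicle control cultures reached saturation at 30 °C; 1 = growth at the plate median or of vehicle wells; lower values mean less growth of the strain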; conditions: S. cerevisiae deletion strains, growth OD, locus YEL037C, strain rad23, hits give low values
Hit rate of the full screen: of about 5,500 compounds, about 2,000 (36%) were called active. Roughly 18% stayed inconclusive and do not appear here. The list shows a part of the results.
measurement-kind: normalized growth
Keep it simple and answer with nothing but the number.

Ask | Give recorded normalized growth. Oc1ccc2c3c1OC1[C@@H](O)CC[C@@]4(O)[C@@H](C2)N(CC2CCC2)CC[C@]314 (stereo partly drawn)
Reply | 0.988

Ask | Give recorded normalized growth. COP(N)(=O)SC (stereo not drawn)
Reply | 0.998

Ask | Give recorded normalized growth. `CSc1nc(NC(C)C)nc(NC(C)C)n1`
Reply | 0.975

Ask | Give recorded normalized growth. `O=c1c(O)cc([C@H]2Oc3cc(O)cc(O)c3C[C@H]2O)cc2c([C@H]3Oc4cc(O)cc(O)c4C[C@H]3O)cc(O)c(O)c12`
Reply | 1.02

Ask | Give recorded normalized growth. `CCCc1nc(C)c2c(=O)[nH]c(-c3cc(S(=O)(=O)N4CCN(CC)CC4)ccc3OCC)nn12`
Reply | 0.985

Ask | Give recorded normalized growth. C[C@H]1O[C@@H](O[C@H]2[C@@H](O)C[C@H](O[C@H]3[C@@H](O)C[C@H](O[C@H]4CC[C@]5(C)C6C[C@@H](O)[C@]7(C)[C@@H](C8=CC(=O)OC8)CC[C@]7(O)C6CC[C@@H]5C4)O[C@@H]3C)O[C@@H]2C)C[C@H](O)[C@@H]1O (stereo partly drawn)
Reply | 1

Ask | Give recorded normalized growth. `CN(C)CC[C@H](c1ccc(Cl)cc1)c1ccccn1`
Reply | 0.992

Ask | Give recorded normalized growth. COC(=O)C[C@H]1C(C)(C)[C@@H](O)[C@@H]2CC3=C4CC(O)O[C@@H](c5ccoc5)[C@]4(C)CCC3[C@@]1(C)C2=O (stereo partly drawn)
Reply | 1.03

Ask | Give recorded normalized growth. C[C@@H]1CCC2[C@](C)(CO)[C@@H](O)CC[C@]2(C)[C@@]12CC[C@@](CO)(CCO)O2 (stereo partly drawn)
Reply | 0.968

Ask | Give recorded normalized growth. COC1CC(OC2CCC3(C)C(CCC4C3CCC3(C)C(C5=CC(=O)OC5)C(OC(C)=O)CC43O)C2)OC(C)C1O (stereo not drawn)
Reply | 1.02

Ask | Give recorded normalized growth. `NC[C@H]1O[C@H](O[C@H]2[C@H](O)[C@@H](O[C@H]3O[C@H](CO)[C@@H](O)[C@H](N)[C@H]3O)[C@H](N)C[C@@H]2N)[C@H](N)[C@@H](O)[C@@H]1O`
Reply | 1

Ask | Give recorded normalized growth. `CC1=CC(=O)C(C(C)C)=CC1=O`
Reply | 0.996

Ask | Give recorded normalized growth. COC(=O)C(N)CS (stereo not drawn)
Reply | 0.978

Ask | Give recorded normalized growth. CC12CCC(=O)C=C1CCc1ccccc12 (stereo not drawn)
Reply | 0.972

Ask | Give recorded normalized growth. CC1(C)C(O)CC(=O)C2(C)C1CC(O)C1(C)C2CCC2(C)C(c3ccoc3)OC(=O)C3OC321 (stereo not drawn)
Reply | 1.02

Ask | Give recorded normalized growth. `CC(C)Nc1nc(Cl)nc(NC(C)C)n1`
Reply | 1.01

Ask | Give recorded normalized growth. CC1(C)C(=O)CC[C@@]2(C)C1C[C@@H](O)[C@@]1(C)C3=CC(=O)O[C@@H](c4ccoc4)[C@]3(C)CCC21 (stereo partly drawn)
Reply | 1.02

Ask | Give recorded normalized growth. CC(=O)O[C@@H]1CC2C(C)(CC[C@H](O)C2(C)C)C2CC[C@]3(C)C(=CC(=O)O[C@H]3c3ccoc3)C21C (stereo partly drawn)
Reply | 1.01

Ask | Give recorded normalized growth. `O=S(=O)(O)O`
Reply | 0.969

Ask | Give recorded normalized growth. `O=C(CCCN1CCC(O)(c2ccc(Cl)cc2)CC1)c1ccc(F)cc1`
Reply | 0.998

Ask | Give recorded normalized growth. CC1(C)Oc2ccc3ccc(=O)oc3c2CC1O (stereo not drawn)
Reply | 0.982

Ask | Give recorded normalized growth. C[C@]12CCC3C(CC[C@]4(O)C[C@@H](O)CC[C@]34C=O)[C@@]1(O)CCC2C1=CC(=O)OC1 (stereo partly drawn)
Reply | 0.979

Ask | Give recorded normalized growth. C[C@@H]1O[C@@H](O[C@H]2CC[C@]3(C=O)C4CC[C@]5(C)[C@@H](C6=CC(=O)OC6)CC[C@]5(O)C4CC[C@]3(O)C2)[C@H](O)[C@H](O)[C@H]1O (stereo partly drawn)
Reply | 1.01

Ask | Give recorded normalized growth. `CCCc1nn(C)c2c(=O)[nH]c(-c3cc(S(=O)(=O)N4CCN(C)CC4)ccc3OCC)nc12`
Reply | 0.992

Ask | Give recorded normalized growth. `COc1cc(O)c2c(=O)cc(-c3ccc(OC)c(-c4c(O)cc(O)c5c(=O)cc(-c6ccc(O)cc6)oc45)c3)oc2c1`
Reply | 1.01

Ask | Give recorded normalized growth. `O=C1CC2(CCCC2)CC(=O)N1CCCCN1CCN(c2ncccn2)CC1`
Reply | 1.01

Ask | Give recorded normalized growth. `CN(C)C(=O)C(CCN1CCC(O)(c2ccc(Cl)cc2)CC1)(c1ccccc1)c1ccccc1`
Reply | 1

Ask | Give recorded normalized growth. COC1CC(O[C@H]2CC[C@]3(C=O)C4CC[C@]5(C)C(C6=CC(=O)OC6)CC[C@]5(O)C4CC[C@]3(O)C2)OC(C)C1O (stereo partly drawn)
Reply | 0.977

Ask | Give recorded normalized growth. `O=C(CCCN1CCN(c2ccccn2)CC1)c1ccc(F)cc1`
Reply | 0.971

Ask | Give recorded normalized growth. `C/C=C(\C)C(=O)O[C@@H]1c2c(ccc3ccc(=O)oc23)OC(C)(C)[C@@H]1OC(C)=O`
Reply | 1.01

Ask | Give recorded normalized growth. C[C@H]1O[C@@H](O[C@H]2[C@@H](O)C[C@H](O[C@H]3[C@@H](O)C[C@H](O[C@H]4CC[C@]5(C)C6CC[C@]7(C)[C@@H](C8=CC(=O)OC8)CC[C@]7(O)C6CC[C@@H]5C4)O[C@@H]3C)O[C@@H]2C)C[C@H](O)[C@@H]1O (stereo partly drawn)
Reply | 0.976

Ask | Give recorded normalized growth. NC[C@H]1O[C@H](OC2[C@@H](N)C[C@@H](N)[C@H](O[C@H]3O[C@H](CO)[C@@H](O)[C@H](N)[C@H]3O)[C@H]2O)[C@H](O)[C@@H](O)[C@@H]1O (stereo partly drawn)
Reply | 1.01

Ask | Give recorded normalized growth. COC1=CC(C)[C@@H]2C[C@H]3OC(=O)C[C@H]4C(C)=C(OC)C(=O)C([C@@]34C)[C@@]2(C)C1=O (stereo partly drawn)
Reply | 0.972
